# Procedure Text: Cytotoxicity against human MT4 cells assessed as reduction in cell viability measured after 5 days by CellTiter-Glo assay
# Assay type: toxicity, cell-based
Friendly reminder: CC50 at 120 h below 8 µM is T, at or above is F.

Determine if `O=C(NCc1c(F)cc(F)cc1F)c1cn2c(c(O)c1=O)C(=O)N1CCCC[C@]13COCC[C@H]23` shows CC50 at 120 h strictly lower than 8 µM.
F

Just wondering, is CC50 at 120 h of `O=C(NCc1ccc(F)c(Cl)c1F)c1cn2c(c(O)c1=O)C(=O)N1CCS[C@]13COCC[C@H]23` below 8 µM?
F

Is the reported CC50 at 120 h for `C[C@@H]1CO[C@@]23CCOC[C@@H]2n2cc(C(=O)NCc4ccc(F)c(Cl)c4F)c(=O)c(O)c2C(=O)N13` strictly below 8 µM?
T

Given the entry `COc1c2n(cc(C(=O)NCc3ccc(F)c(Cl)c3F)c1=O)[C@H]1CCC[C@]13OCCN3C2=O` , would its reported CC50 at 120 h be below 8 µM?
T

Problem: For the molecule `C[C@H]1CCO[C@]23CCC[C@H]2n2cc(C(=O)NCc4ccc(F)c(Cl)c4F)c(=O)c(O)c2C(=O)N13` , is CC50 at 120 h under 8 µM?
F

* * *

# Procedure Text: Inhibition of HIV 3B integrase infected in human MT4 cells assessed as reduction in viral replication after 5 days by CellTiter-Glo assay
# Type: cell-based
# Study Conditions: Human immunodeficiency virus 1, 3B, MT4, 120 h
Property Measured: EC50 (nM)
The answer is to be given in nM; state only the numeric part.

Name the recorded EC50 of the item `C[C@@H]1CO[C@@]23CCOC[C@@H]2n2cc(C(=O)NCc4ccc(F)c(Cl)c4F)c(=O)c(O)c2C(=O)N13` in your answer.
1.82

For the compound `O=C(NCc1ccc(F)c(Cl)c1F)c1cn2c(c(O)c1=O)C(=O)N1CCS[C@]13COCC[C@H]23` , give its reported EC50.
1.2

Return EC50 (reported value) for this compound: `O=C(NCc1c(F)cc(F)cc1F)c1cn2c(c(O)c1=O)C(=O)N1CCCC[C@]13COCC[C@H]23`
1.94
